Origin of the recorded values: ChEMBL document CHEMBL1961873

Overview of recorded inhibition for various compounds
biological target: 5'-AMP-activated protein kinase catalytic subunit alpha-2 (Homo sapiens); conditions: at 1 µM
Description: GSK_PKIS: AMPKA2 (A2B1G1) mean inhibition at 1 uM [Nanosyn]

Consider the following illustrative entries.
>>> meas_value("CS(=O)(=O)CCNCc1ccoc1-c1ccc2ncnc(Nc3ccc(OCc4ccccc4)cc3)c2c1")
"1.14%"
>>> meas_value("CC1=C(C(=O)Nc2ccc3[nH]nc(C)c3c2)C(c2ccc(C(F)(F)F)cc2)CC(=O)N1 (stereo not given)")
"7.41%"
>>> meas_value("COc1cccc(Nc2nccc(-c3cnn4ncccc34)n2)c1")
"7.99%"
>>> meas_value("N#Cc1cccc(Nc2ncc(-c3ccccc3)o2)c1")
"1.61%"

Hello, please tell me recorded inhibition for this one: CNC(=O)c1ncccc1Nc1nc(Nc2cc3c(cc2OC)CCCN3C(=O)CN(C)C)nc2[nH]ccc12
8.1%

Hello, please tell me recorded inhibition for this one: CS(=O)(=O)Nc1ccc(-c2ccc3c(NC(=O)C4CC4)n[nH]c3c2)cc1
40%

Hello, please tell me recorded inhibition for this one: COc1cc(N2CCN(C(C)C)CC2)ccc1Nc1nc(Nc2cccc(F)c2C(=O)O)c2cc[nH]c2n1
2.95%

Hello, please tell me recorded inhibition for this one: COc1cccc(-n2ncc3c(N/N=C/c4ccc(C(=O)NCCN(C)C)cc4)ncnc32)c1
14.5%

Hello, please tell me recorded inhibition for this one: Cc1c2ccc(N(C)c3ccnc(Nc4cccc(S(N)(=O)=O)c4)n3)cc2nn1C
5.34%

Hello, please tell me recorded inhibition for this one: COC(=O)Nc1nc2ccc(Oc3ccc(NC(=O)Nc4cc(C(F)(F)F)ccc4F)cc3)cc2s1
1.67%

Hello, please tell me recorded inhibition for this one: COc1ccc(Nc2ncc(-c3ccccc3)o2)cc1OC
14.5%

Hello, please tell me recorded inhibition for this one: CCS(=O)(=O)c1ccc(OC)c(Nc2ncc(-c3cccc(C(C)=O)c3)o2)c1
3.65%

Hello, please tell me recorded inhibition for this one: COC(=O)Nc1nc2cc(Oc3ccc(NC(=O)Nc4ccccc4)cc3)ccc2[nH]1
0.9%

Hello, please tell me recorded inhibition for this one: Cc1cc(O)cc(C)c1/C=C/c1cncc(C(=O)OC(C)(C)C)c1
4.01%
